# System: SK-MEL-28 melanoma
# methodDescription: NCI tumour cell line growth inhibition, 48 h
Here, each record is paired with measured GI50 data.

Sample answers from the record:
O=C(Nc1ccc(Cl)cc1)c1cc2cc(F)ccc2cc1O : 1.75 µM
O=C1CCC2=C3C4CCCCC4C(=O)C4CCCC(OC2C1)C34 (configuration not stated) : 4.84 µM
COc1cccc(-c2nc(-c3ccc(NC(=O)c4ccccc4)cc3)[nH]c2-c2ccnc(Br)c2)c1 : 3 µM
CC(C)(C)N1CC(OC(N)=O)C1 : > 100 µM
Cc1cccc2c1NC(=O)[C@@]21[C@H](C(=O)c2ccccc2)[C@]2(C(=O)Nc3ccccc32)[C@H]2CCCN21 : 34.3 µM

# lookup: GI50 of "Oc1cccc(Cn2c(-c3cccc(O)c3O)nc3ccccc32)c1O"
10.9 µM

Record: "O=C1/C=C/[C@@H](O)[C@@H]2C[C@@H](O)C[C@H]2/C=C/CCC[C@H](CO)O1"
0.626 µM

Origin of the recorded values: PubChem BioAssay (NCI)
